Listed here are compounds together with their documented pEC50.
# Tested on: Human immunodeficiency virus 1
# procedure text: microbe, parasite or virus in culture
# reported conditions: Human immunodeficiency virus 1, IIIB, MT4
# Description: Antiviral activity against HIV1 IIIB infected in MT-4 cells assessed as viral induced cytopathic effect by MTT assay
pEC50: −log10 of the molar value.

[
  {
    "smiles data": "Cc1cc(/C=C/C#N)cc(C)c1Oc1ccnc(Nc2ccc(N3CCN(S(=O)(=O)N(C)C)CC3)cc2)n1",
    "subject of test": "Human immunodeficiency virus 1",
    "pEC50": 8.10
  },
  {
    "smiles data": "Cc1cc(/C=C/C#N)cc(C)c1Oc1ccnc(Nc2ccc(N3CCN(S(C)(=O)=O)CC3)cc2)n1",
    "subject of test": "Human immunodeficiency virus 1",
    "pEC50": 8.30
  },
  {
    "smiles data": "Cc1cc(/C=C/C#N)cc(C)c1Oc1ccnc(Nc2ccc(N3CCN(S(C)(=O)=O)CC3)c(F)c2)n1",
    "subject of test": "Human immunodeficiency virus 1",
    "pEC50": 8.70
  },
  {
    "smiles data": "Cc1cc(/C=C/C#N)cc(C)c1Oc1ccnc(Nc2ccc(N3CCN(S(=O)(=O)C(C)C)CC3)c(F)c2)n1",
    "subject of test": "Human immunodeficiency virus 1",
    "pEC50": 8.30
  },
  {
    "smiles data": "Cc1cc(/C=C/C#N)cc(C)c1Oc1ccnc(Nc2ccc(N3CCN(S(=O)(=O)N(C)C)CC3)c(F)c2)n1",
    "subject of test": "Human immunodeficiency virus 1",
    "pEC50": 8.30
  },
  {
    "smiles data": "Cc1cc(C#N)cc(C)c1Oc1ccnc(Nc2ccc(N3CCN(S(=O)(=O)N(C)C)CC3)c(F)c2)n1",
    "subject of test": "Human immunodeficiency virus 1",
    "pEC50": 7.74
  },
  {
    "smiles data": "CCS(=O)(=O)N1CCN(c2ccc(Nc3nccc(Oc4c(C)cc(C#N)cc4C)n3)cc2F)CC1",
    "subject of test": "Human immunodeficiency virus 1",
    "pEC50": 8.40
  },
  {
    "smiles data": "CCS(=O)(=O)N1CCC(c2ccc(Nc3nccc(Oc4c(C)cc(/C=C/C#N)cc4C)n3)cc2)CC1",
    "subject of test": "Human immunodeficiency virus 1",
    "pEC50": 8.30
  },
  {
    "smiles data": "Cc1cc(C#N)cc(C)c1Oc1ccnc(Nc2ccc(N3CCN(S(=O)(=O)C(C)C)CC3)c(F)c2)n1",
    "subject of test": "Human immunodeficiency virus 1",
    "pEC50": 8.10
  },
  {
    "smiles data": "Cc1cc(/C=C/C#N)cc(C)c1Oc1ccnc(Nc2ccc(N3CCN(S(=O)(=O)C4CC4)CC3)c(F)c2)n1",
    "subject of test": "Human immunodeficiency virus 1",
    "pEC50": 8.30
  },
  {
    "smiles data": "Cc1cc(/C=C/C#N)cc(C)c1Oc1ccnc(Nc2ccc(C3CCN(S(=O)(=O)C(C)C)CC3)cc2)n1",
    "subject of test": "Human immunodeficiency virus 1",
    "pEC50": 8.10
  },
  {
    "smiles data": "Cc1cc(/C=C/C#N)cc(C)c1Oc1ccnc(Nc2ccc(C3CCN(S(=O)(=O)C4CC4)CC3)cc2)n1",
    "subject of test": "Human immunodeficiency virus 1",
    "pEC50": 8.30
  },
  {
    "smiles data": "Cc1cc(/C=C/C#N)cc(C)c1Oc1ccnc(Nc2ccc(N3CC[S+]([O-])CC3)c(F)c2)n1",
    "subject of test": "Human immunodeficiency virus 1",
    "pEC50": 9.00
  },
  {
    "smiles data": "Cc1cc(C#N)cc(C)c1Oc1ccnc(Nc2ccc(N3CCN(S(C)(=O)=O)CC3)c(F)c2)n1",
    "subject of test": "Human immunodeficiency virus 1",
    "pEC50": 8.22
  },
  {
    "smiles data": "Cc1cc(/C=C/C#N)cc(C)c1Oc1ccnc(Nc2ccc(N3CCOCC3)c(F)c2)n1",
    "subject of test": "Human immunodeficiency virus 1",
    "pEC50": 8.30
  }
]

* * *

Reported log10(EC50) is given for each of the following molecules.
# Test system: Human immunodeficiency virus 1
# procedure text: Antiviral activity against HIV1 harboring Y181C mutant infected in MT4 cells
# Assay type: functional, organism-based
# reported conditions: Human immunodeficiency virus 1, MT4
property name: log10(EC50) (log10 of the value in nM)

[
  {
    "smiles data": "CCS(=O)(=O)N1CCN(c2ccc(Nc3nccc(Oc4c(C)cc(/C=C/C#N)cc4C)n3)cc2)CC1",
    "log10(EC50)": 2.91
  },
  {
    "smiles data": "Cc1cc(/C=C/C#N)cc(C)c1Oc1ccnc(Nc2ccc(N3CCN(S(C)(=O)=O)CC3)c(F)c2)n1",
    "log10(EC50)": 1.48
  },
  {
    "smiles data": "Cc1cc(/C=C/C#N)cc(C)c1Oc1ccnc(Nc2ccc(C3CCN(S(=O)(=O)C4CC4)CC3)cc2)n1",
    "log10(EC50)": 2.58
  },
  {
    "smiles data": "Cc1cc(/C=C/C#N)cc(C)c1Oc1ccnc(Nc2ccc(N3CCN(S(C)(=O)=O)CC3)cc2)n1",
    "log10(EC50)": 2.98
  },
  {
    "smiles data": "Cc1cc(/C=C/C#N)cc(C)c1Oc1ccnc(Nc2ccc(C3CCN(S(C)(=O)=O)CC3)cc2)n1",
    "log10(EC50)": 2.51
  },
  {
    "smiles data": "Cc1cc(/C=C/C#N)cc(C)c1Oc1ccnc(Nc2ccc(N3CCOCC3)c(F)c2)n1",
    "log10(EC50)": 1.64
  },
  {
    "smiles data": "Cc1ccnc2c1NC(=O)c1cccnc1N2C1CC1",
    "log10(EC50)": 3.87
  },
  {
    "smiles data": "CCS(=O)(=O)N1CCN(c2ccc(Nc3nccc(Oc4c(C)cc(C#N)cc4C)n3)cc2F)CC1",
    "log10(EC50)": 2.28
  },
  {
    "smiles data": "Cc1cc(/C=C/C#N)cc(C)c1Oc1ccnc(Nc2ccc(N3CC[S+]([O-])CC3)c(F)c2)n1",
    "log10(EC50)": 1.92
  },
  {
    "smiles data": "Cc1cc(/C=C/C#N)cc(C)c1Oc1ccnc(Nc2ccc(N3CCS(=O)(=O)CC3)c(F)c2)n1",
    "log10(EC50)": 0.90
  },
  {
    "smiles data": "Cc1cc(/C=C/C#N)cc(C)c1Oc1ccnc(Nc2ccc(N3CCN(S(=O)(=O)N(C)C)CC3)c(F)c2)n1",
    "log10(EC50)": 2.08
  },
  {
    "smiles data": "CCS(=O)(=O)N1CCN(c2ccc(Nc3nccc(Oc4c(C)cc(/C=C/C#N)cc4C)n3)cc2F)CC1",
    "log10(EC50)": 1.48
  },
  {
    "smiles data": "Cc1cc(/C=C/C#N)cc(C)c1Oc1ccnc(Nc2ccc(N3CCN(S(=O)(=O)C(C)C)CC3)c(F)c2)n1",
    "log10(EC50)": 1.97
  }
]

* * *

Property: CC50; scope: individual molecules
# procedure text: Cytotoxicity against human MT4 cells assessed as reduction in cell viability by MTT assay
# Type: toxicity, cell-based

[
  {
    "smiles data": "CCS(=O)(=O)N1CCN(c2ccc(Nc3nccc(Oc4c(C)cc(/C=C/C#N)cc4C)n3)cc2)CC1",
    "qualifying sign": ">",
    "CC50 / µM": 38.6
  },
  {
    "smiles data": "CCS(=O)(=O)N1CCC(c2ccc(Nc3nccc(Oc4c(C)cc(/C=C/C#N)cc4C)n3)cc2)CC1",
    "qualifying sign": ">",
    "CC50 / µM": 38.6
  },
  {
    "smiles data": "Cc1cc(C#N)cc(C)c1Oc1nc(Nc2ccc(C#N)cc2)nc(N)c1Br",
    "qualifying sign": ">",
    "CC50 / µM": 4.59
  },
  {
    "smiles data": "Cc1cc(/C=C/C#N)cc(C)c1Oc1ccnc(Nc2ccc(N3CCN(S(=O)(=O)C(C)C)CC3)c(F)c2)n1",
    "qualifying sign": "=",
    "CC50 / µM": 18.1
  },
  {
    "smiles data": "CCS(=O)(=O)N1CCN(c2ccc(Nc3nccc(Oc4c(C)cc(C#N)cc4C)n3)cc2F)CC1",
    "qualifying sign": ">",
    "CC50 / µM": 245
  },
  {
    "smiles data": "Cc1cc(C#N)cc(C)c1Oc1ccnc(Nc2ccc(N3CCN(S(=O)(=O)C(C)C)CC3)c(F)c2)n1",
    "qualifying sign": "=",
    "CC50 / µM": 192
  },
  {
    "smiles data": "Cc1cc(C#N)cc(C)c1Oc1ccnc(Nc2ccc(N3CCN(S(C)(=O)=O)CC3)c(F)c2)n1",
    "qualifying sign": "=",
    "CC50 / µM": 7.75
  },
  {
    "smiles data": "Cc1cc(/C=C/C#N)cc(C)c1Oc1ccnc(Nc2ccc(C3CCN(S(C)(=O)=O)CC3)cc2)n1",
    "qualifying sign": "=",
    "CC50 / µM": 4.3
  },
  {
    "smiles data": "Cc1cc(/C=C/C#N)cc(C)c1Oc1ccnc(Nc2ccc(N3CCS(=O)(=O)CC3)c(F)c2)n1",
    "qualifying sign": "=",
    "CC50 / µM": 15.8
  },
  {
    "smiles data": "Cc1cn([C@H]2C[C@H](N=[N+]=[N-])[C@@H](CO)O2)c(=O)[nH]c1=O",
    "qualifying sign": ">",
    "CC50 / µM": 7.48
  },
  {
    "smiles data": "Cc1cc(/C=C/C#N)cc(C)c1Oc1ccnc(Nc2ccc(N3CCN(S(=O)(=O)N(C)C)CC3)cc2)n1",
    "qualifying sign": "=",
    "CC50 / µM": 78.1
  },
  {
    "smiles data": "Cc1cc(/C=C/C#N)cc(C)c1Oc1ccnc(Nc2ccc(C3CCN(S(=O)(=O)C4CC4)CC3)cc2)n1",
    "qualifying sign": ">",
    "CC50 / µM": 37.8
  },
  {
    "smiles data": "Cc1cc(/C=C/C#N)cc(C)c1Oc1ccnc(Nc2ccc(N3CCOCC3)c(F)c2)n1",
    "qualifying sign": "=",
    "CC50 / µM": 228
  },
  {
    "smiles data": "Cc1cc(/C=C/C#N)cc(C)c1Oc1ccnc(Nc2ccc(N3CCN(S(=O)(=O)C4CC4)CC3)cc2)n1",
    "qualifying sign": "=",
    "CC50 / µM": 216
  }
]
